Recorded values, source PubChem BioAssay AID1508612.

Listed here: items and their measured Papp.
assay: passive permeability, PAMPA, ADME assay (AID 1508612); details: pH 7.4, 30.0 min, 50.0 µM

Worked cases, answers included:
CCCc1oc2ccc(NS(=O)(=O)c3ccc(OC)cc3)cc2c1C(=O)OCC : < 1 ×10⁻⁶ cm/s
Cc1noc(/C=C/c2ccccc2F)c1S(=O)(=O)N1CCC(C(=O)Nc2ccc(C#N)cc2)CC1 : 8.58 ×10⁻⁶ cm/s
CC(=O)c1ccc(N2CCN(S(=O)(=O)c3ccc4c(c3)CC(=O)N4)CC2)cc1 : 429 ×10⁻⁶ cm/s
CCOc1ccc(CCNC(=O)c2cc3ccccc3n2Cc2cccc(C)n2)cc1OCC : > 1000 ×10⁻⁶ cm/s
N#Cc1cnc(NS(=O)(=O)c2ccc(NC(=O)Cc3ccc(F)c(Cl)c3)cc2)s1 : < 1 ×10⁻⁶ cm/s
Cc1cc(-c2nnc3n2CCCCC3)c(C)n1-c1cccnc1 : 49.2 ×10⁻⁶ cm/s

Lab book: Papp of Fc1cc(Nc2nc(-c3ccncc3)nc3ccccc23)ccc1-c1cccnc1 noted as 5.4 ×10⁻⁶ cm/s

Lab book: Papp of Cc1cc(F)ccc1-c1nc(NCCN=C(N)NC#N)nc2c1ccc(=O)n2-c1c(F)cccc1F noted as < 1 ×10⁻⁶ cm/s

Lab book: Papp of COc1cc2c(Oc3ccc(-c4cnc(Nc5ccc(F)cc5)n(C)c4=O)cc3F)ccnc2cc1OCCCN1CCOCC1 noted as 92.9 ×10⁻⁶ cm/s
